// reported Index of relative activity calc. on ED84 (vs metronidazole), mice per item
Test system: Trichomonas Vaginalis
Test: Systemic activity in mice infected subcutaneously with Trichomonas Vaginalis
Format: in vivo
Details: relative to metronidazole = 1
Could you respond with only the numeric value?

The examples below pair each entry with its known result.
CCc1ncc([N+](=O)[O-])n1CCCN1CCN(C)CC1 [Example 10] = 0.93
CCN1CCN(CCCn2cncc2[N+](=O)[O-])CC1 [Example 2] = 0.43
CN1CCN(CCCn2cncc2[N+](=O)[O-])CC1 [Example 1] = 0.41
CCOC(=O)N1CCN(CCCn2c([N+](=O)[O-])cnc2C)CC1 [Example 8] = 0.19
CCOC(=O)N1CCN(CCCn2cncc2[N+](=O)[O-])CC1 [Example 3] = 0.16

Please fill in: Index of relative activity calc. on ED84 (vs metronidazole), mice reported for Cc1ncc([N+](=O)[O-])n1CCN1CCN(C)CC1 [Example 9] = 0.47

Please fill in: Index of relative activity calc. on ED84 (vs metronidazole), mice reported for Cc1ncc([N+](=O)[O-])n1CCCN1CCN(C)CC1 [Example 6] = 0.69

Please fill in: Index of relative activity calc. on ED84 (vs metronidazole), mice reported for CN1CCN(CCn2cncc2[N+](=O)[O-])CC1 [Example 4] = 0.37

Please fill in: Index of relative activity calc. on ED84 (vs metronidazole), mice reported for O=[N+]([O-])c1cncn1CCN1CCOCC1 [Nimorazole, reference compound] = 0.45

Please fill in: Index of relative activity calc. on ED84 (vs metronidazole), mice reported for CN1CCN(CCCn2c([N+](=O)[O-])cnc2-c2ccccc2)CC1 [Example 11] = 0.59
